Tested system: MTF1 (Mus musculus)
Construct: endogenous in cells; host or cells: primary mouse articular chondrocytes
Sequence (Q07243 whole entry): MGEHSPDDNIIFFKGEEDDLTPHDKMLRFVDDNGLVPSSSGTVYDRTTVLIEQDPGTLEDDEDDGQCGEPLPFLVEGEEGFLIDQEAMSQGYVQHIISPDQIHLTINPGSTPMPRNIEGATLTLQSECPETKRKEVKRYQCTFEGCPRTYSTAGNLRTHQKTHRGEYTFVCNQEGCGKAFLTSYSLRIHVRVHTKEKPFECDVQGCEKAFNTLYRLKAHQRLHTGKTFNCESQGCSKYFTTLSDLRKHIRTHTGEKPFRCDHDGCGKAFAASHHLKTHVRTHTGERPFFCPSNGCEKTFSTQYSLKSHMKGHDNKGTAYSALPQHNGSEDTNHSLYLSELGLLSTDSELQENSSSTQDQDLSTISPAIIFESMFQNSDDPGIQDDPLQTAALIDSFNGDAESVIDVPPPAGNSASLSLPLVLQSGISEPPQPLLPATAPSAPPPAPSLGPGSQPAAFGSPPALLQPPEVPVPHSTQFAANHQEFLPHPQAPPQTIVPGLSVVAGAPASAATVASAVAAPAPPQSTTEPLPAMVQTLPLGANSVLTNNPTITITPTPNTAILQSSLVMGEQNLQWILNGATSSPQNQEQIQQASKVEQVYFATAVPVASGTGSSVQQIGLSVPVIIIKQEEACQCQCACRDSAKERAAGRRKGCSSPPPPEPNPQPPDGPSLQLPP
Assay notes: MTF1 activity reporter gene assay and immunostaining in chondrocytes
Type: cell-based
Experimental conditions: chondrocytes, reporter gene assay
Property name: MTF1 transcriptional activity, effect of the substance itself

Chemical string: [Cl][Mn][Cl]
Result: no effect
//
Chemical string: [Cl][Fe][Cl]
Result: no effect
